Value source: paper PMC9987750

- System name: hCA IX (Homo sapiens, UniProt Q16790)
- Run description: stopped flow CO2 hydrase assay, CA inhibition
- Study conditions: recombinant enzyme, pH 7.4, 10 min pre-incubation, from 3 different assays
Measure: pKi
In plain terms, pKi is the concentration in mol/L turned into minus its base-10 logarithm.

Would you please look over these solved cases?
# Molecular string, pKi
records = [
    ("Cc1cc(-c2ccc(NC(=O)NCCc3ccc(S(N)(=O)=O)cc3)c(C)c2)ccc1NC(=O)NCCc1ccc(S(N)(=O)=O)cc1", 7.03),
    ("NS(=O)(=O)c1ccc(CCNC(=O)Nc2ccc(NC(=O)NCCc3ccc(S(N)(=O)=O)cc3)cc2)cc1", 7.16),
    ("Cc1ccc(NC(=O)Nc2cccc(S(N)(=O)=O)c2)cc1NC(=O)Nc1cccc(S(N)(=O)=O)c1", 7.09),
]

## Input # get_value(readout='pKi', item= NS(=O)(=O)c1cccc(NC(=O)Nc2ccc(Cc3ccc(NC(=O)Nc4cccc(S(N)(=O)=O)c4)cc3)cc2)c1 )
## Output 7.10

## Input # get_value(readout='pKi', item= NS(=O)(=O)c1cccc(NC(=O)Nc2ccc(NC(=O)Nc3cccc(S(N)(=O)=O)c3)cc2)c1 )
## Output 7.20

====

Property: pKi; scope: individual compounds
- System name: hCA I (Homo sapiens, UniProt P00915)
- Sequence (P00915 whole entry): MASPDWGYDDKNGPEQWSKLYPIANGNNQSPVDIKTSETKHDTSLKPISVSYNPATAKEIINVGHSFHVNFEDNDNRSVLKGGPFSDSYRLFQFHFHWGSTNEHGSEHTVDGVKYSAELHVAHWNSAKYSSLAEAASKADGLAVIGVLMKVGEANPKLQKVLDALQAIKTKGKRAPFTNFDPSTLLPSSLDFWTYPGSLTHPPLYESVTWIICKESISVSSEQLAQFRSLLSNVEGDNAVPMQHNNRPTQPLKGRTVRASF
- Run description: stopped flow CO2 hydrase assay, CA inhibition
- Study conditions: recombinant enzyme, pH 7.4, 10 min pre-incubation, from 3 different assays
- Method: An SX.18 MV-R Applied Photophysics (Oxford, UK) stopped-flow instrument has been used to assay the catalytic/inhibition of various CA isozymes. […] Stock solutions of inhibitors were prepared at a concentration of 10 mM (in DMSO-water 1:1, v/v) and dilutions up to 0.01 nM done with the assay buffer mentioned above. […] Inhibitor and enzyme solutions were pre-incubated together for 10 min at room temperature prior to assay, in order to allow for the formation of the E-I complex. […]
In plain terms, pKi is the concentration in mol/L turned into minus its base-10 logarithm.

Would you please look over these solved cases?
# Molecular string, System name, Observed value
records = [
    ("Cc1ccc(NC(=O)Nc2cccc(S(N)(=O)=O)c2)cc1NC(=O)Nc1cccc(S(N)(=O)=O)c1", "hCA I (Homo sapiens, UniProt P00915)", 5.30),
    ("NS(=O)(=O)c1ccc(NC(=O)Nc2ccc(NC(=O)Nc3ccc(S(N)(=O)=O)cc3)cc2)cc1", "hCA I (Homo sapiens, UniProt P00915)", 5.14),
]

Next compound, pKi to be filled in.
## Input # get_value(readout='pKi', item= NS(=O)(=O)c1ccc(CCNC(=O)Nc2ccc(Cc3ccc(NC(=O)NCCc4ccc(S(N)(=O)=O)cc4)cc3)cc2)cc1 )
## Output 5.27
